Kindly state interaction score for each of the entries shown.
Biological target: T1, 4H797-bH
T1 chain: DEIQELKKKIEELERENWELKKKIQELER
Assay: two-hybrid library CCNG1;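 further: natural log of median RNA to DNA barcode read ratio; higher means stronger binding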
In your answer, state the number alone without any accompanying words.

Recorded interaction score (binder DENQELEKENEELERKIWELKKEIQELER [4H1193-bH] ): -0.528

interaction score measured on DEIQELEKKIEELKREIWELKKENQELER [4H331-bH] = -0.0604

For record DEIQELKKEIEELERKNWELKKKNQELER [4H575-bH] the listed interaction score is -0.434

Quick note, interaction score for DEIQELKKENEELERKIWELKKKNQELER [4H687-bH] landed at -0.897

The reported interaction score of the binder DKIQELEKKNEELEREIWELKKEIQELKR [4H2442-bH] was -0.629

// interaction score value for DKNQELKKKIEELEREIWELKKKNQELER [4H3855-bH] : -0.875

Value of measured interaction score for the entry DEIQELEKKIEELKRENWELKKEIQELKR [4H346-bH] : 0.329
